System: Hek293T
Assay: Primary qHTS to identify gynecologic anti-cancer compounds using libraries of approved drugs and bioactive compounds (AID 1345084); further: nearly all actives have a fitted effect of over 55% in size; on activity change, negative = cytotoxicity: on the % scale 0 is the no-effect control and ±100 the full control effect
Details: Gynecologic cancer cell panel viability, ATPlite luminescence, 48 h, control line for the selectivity index; series mostly up to 57.5 µM
Excerpt: National Center for Advancing Translational Sciences [NCATS] Assay Overview: Chemotherapeutic drug responses vary from cancer to cancer and from patient to patient. […] ATPlite is a luminescence based assay reliant on the conversion of a luciferase substrate to light in the presence of ATP. As a cytotoxic compound will suppress growth and decrease the number of cells, the concentration of ATP will decrease, and less light signal will be detected in the well. […]
Results filed as inconclusive are left out. Calls of active or inactive are those of the source. The call rests on the fitted dose curve; in most records, active means well fitted cell-killing curve with a large enough effect; inconclusive means small, poorly fitted or top-dose-only effect, or effect the other way; inactive means flat fitted curve, though single readings scatter.
measurement-label: activity change, negative = cytotoxicity

Here are 3 compounds together with their reported answers.
compound | measurement-label | value-observed
CC(CCC1(O)OC2CC3C4CCC5CC(O[C@@H]6O[C@H](CO)[C@@H](O)[C@H](O)[C@H]6O[C@@H]6O[C@@H](C)[C@H](O)[C@@H](O)[C@H]6O)C(O)CC5(C)C4CCC3(C)C2C1C)CO[C@@H]1O[C@H](CO)[C@@H](O)[C@H](O)[C@H]1O (some centres undefined) | activity change, negative = cytotoxicity | 17.8% [at 11.6 µM] (inactive)
C[C@@H]1O[C@@H](O[C@@H]2[C@@H](O)[C@H](O[C@H]3CC[C@@]4(C)C(CC[C@]5(C)C4CC=C4[C@@H]6CC(C)(C)CC[C@]6(C(=O)O[C@@H]6O[C@H](CO)[C@@H](O)[C@H](O)[C@H]6O)CC[C@]45C)C3(C)C)O[C@H](C(=O)O)[C@H]2O)[C@H](O)[C@H](O)[C@H]1O (some centres undefined) | activity change, negative = cytotoxicity | 5.01% [at 11.6 µM] (inactive)
C[C@@H]1O[C@@H](O[C@H]2[C@H](O[C@H]3CC[C@@]4(C)C(CC[C@]5(C)C4CC=C4[C@@H]6CC(C)(C)CC[C@]6(C(=O)O[C@@H]6OC[C@H](O)[C@H](O)[C@H]6O[C@@H]6O[C@@H](C)[C@H](O[C@@H]7O[C@H](CO)[C@@H](O)[C@H](O)[C@H]7O)[C@H](O)[C@H]6O)[C@H](O)C[C@]45C)C3(C)C)O[C@H](CO)[C@@H](O[C@@H]3OC[C@@H](O)[C@H](O)[C@H]3O)[C@@H]2O)[C@H](O)[C@H](O)[C@H]1O (some centres undefined) | activity change, negative = cytotoxicity | 6.66% [at 6.55 µM] (inactive)

Request: Using the record for `O=S(=O)(Nc1ccccn1)c1ccc(N=Cc2c(O)[nH]c3ccc4ncsc4c23)cc1` , report its activity change, negative = cytotoxicity.
Response: 20.8% [at 11.6 µM] (inactive)

* * *

test system: HeLa; test: Primary qHTS to identify gynecologic anti-cancer compounds using libraries of approved drugs and bioactive compounds (AID 1345084); settings: Gynecologic cancer cell panel viability, ATPlite luminescence, 48 h; series mostly up to 57.5 µM; further: nearly all actives have a fitted effect of over 55% in size
Results filed as inconclusive are left out. Activity calls are given as the source filed them. Calls follow the shape of the dose curve; as a rule, active = well fitted cell-killing curve with a large enough effect; inconclusive = small, poorly fitted or top-dose-only effect, or effect the other way; inactive = flat fitted curve, though single readings scatter.
Hello, when you answer, please use one of the following outcomes: YES for active, NO for inactive

compound | group-label
Cc1nc([C@](C)(O)CO)sc1-c1cnc(N)c(O[C@H](C)c2cc(F)ccc2-n2nccn2)c1 | YES
COC(=O)C[C@H]1C(C)(C)[C@H](OC(=O)C(C)C)[C@@]2(O)C(=O)[C@]1(C)C1CC[C@]3(C)C(CC(=O)O[C@H]3c3ccoc3)[C@]13O[C@@H]32 (some centres not stated) | NO
CCCC(=O)O[C@@H]1[C@@H]2[C@@H](OC(C)=O)[C@]3(C)C(=O)[C@H]4[C@@H](OC(C)=O)C(C)(C)C[C@H]4[C@]3(C)C(=O)[C@@]2(OC(C)=O)C[C@@H]1C | NO

Request: Query: recorded result category for `CCCCc1ccc(C(=O)Nc2cc(-c3ccc(Cl)cc3)nn2-c2ccc(Cl)cc2)cc1` in this test
Response: NO

Request: Query: recorded result category for C=CC(C)(CC/C=C(\C)C(=O)OC)OC1OC(COC(=O)CC(C)(O)CC(=O)O)C(OC2OC(CO)C(O)C(O)C2O)C(O)C1O (configuration not stated) in this test
Response: NO

Request: Query: recorded result category for COC1/C=C/C(C)(O)C(SCC(N)C(=O)O)CC(=O)OC(C)C(C)CC/C=C/1C (configuration not stated) in this test
Response: NO

Request: Query: recorded result category for `Cc1cc(C(=O)N2CCCCc3ccccc32)ccc1CNC(=O)N1CCC[C@H]1C(=O)N(C)C` in this test
Response: NO
